# Test system: Huh-7 luc/neo ET cells
# assaySummary: Cytotoxicity by XTT staining in replicon cells
# testContext: read-out: HCV Replicon CC50; XTT, 72 hours
quantityKind: CC50

1. CC(C)OC(=O)[C@H](C)N[P@](=O)(OCC1O[C@@H](n2cnc3c(N(C)C4CC4)nc(N)nc32)[C@](C)(F)[C@@H]1O)Oc1ccccc1 (some centres unmarked) [Compound 27] = > 100 µM
2. CC(C)OC(=O)[C@H](C)N[P@](=O)(OCC1O[C@@H](n2cnc3c(N(C)C)nc(N)nc32)[C@](C)(F)[C@@H]1O)Oc1ccccc1 (some centres unmarked) [Compound 25] = > 100 µM
